The measurements presented in this section are drawn from a melting point compilation (Tetko et al.; mined from patent text by program, amines drawn as free bases though some values may be those of a salt).

// values below are reported melting point
ASSAY ENDPOINT: melting point

In [3]: df
Out[3]:
                                    compound  assay_endpoint  reported_result
 0              CC(=O)ON1C(C)(C)NC(=O)C1(C)C   melting point    188 to 190 °C
 1  COc1ccc2c(c1)C(C(=O)O)CC2 (stereo unspecified)   melting point           101 °C
 2  CCCc1cc(Cl)c2oc(-c3ccccc3)c(C)c2c1OC(C)=O   melting point      86 to 87 °C
 3  CCCc1nc2c(N)nc3cc(Oc4cccc(NCC)c4)ccc3c2n1CC(C)C   melting point    168 to 174 °C
 4  C=Cc1cc(CNC(=O)C(C)=Cc2ccc(C(C)(C)C)cc2)cc(F)c1NS(C)(=O)=O   melting point    136 to 138 °C
 5  CC1(C)CCc2cc(S(=O)(=O)C[N+](=O)[O-])ccc2O1   melting point    85 to 86.5 °C
 6                   CCN(C)c1ccc2c(c1)CNC2=O   melting point    127 to 129 °C
 7     CCOC(=O)C(=NO)c1cccc(C(=O)c2ccccc2)c1   melting point    109 to 110 °C
 8                 COCOCc1nc(-c2ccccc2)oc1CO   melting point      70 to 71 °C
 9  COc1nc(C)c(CCN2CC=C(c3c[nH]c4ccccc34)CC2)c(=O)n1C   melting point    209 to 211 °C
10  N#CCc1cccc(Cn2ccc(OCc3ccc(F)cc3F)c(Br)c2=O)c1   melting point    120 to 121 °C

###

// values below are reported melting point
ASSAY ENDPOINT: melting point

>>> df
                                    compound  reported_result
 0                CCCCc1cc2c(C)n(C)nc2c(N)n1    130 to 131 °C
 1  O=C(C=Cc1cccc(S(=O)(=O)Nc2cccc3ccccc23)c1)NO           180 °C
 2  CCCN(CCC)CC1CCCN(CCNC(=O)N2c3ccccc3NC(=O)c3c2ccn3C)C1 (stereo not drawn)    153 to 155 °C
 3             COc1ccc(C(=O)CC(=O)C(F)F)cc1F      70 to 72 °C
 4              COc1cc(OC)nc(NC(=O)OC(C)C)n1      51 to 54 °C
 5  CC(C)(O)COc1c(-c2ccc(S(N)(=O)=O)cc2)cnn(-c2ccc(F)c(Cl)c2)c1=O    176 to 178 °C
 6     O=[N+]([O-])c1cc2nc(O)c(O)nc2c2nsnc12         > 300 °C
 7                     CCCCn1c(C)nnc1SC(N)=O    112 to 114 °C
 8   N#CC(Br)c1ccc(Cl)cc1 (stereo not drawn)      46 to 49 °C
 9                COC(=O)c1ccc2cc(CCCO)oc2c1      63 to 65 °C
10  O=C1Nc2ccccc2C12CCCC(Br)C2 (stereo not drawn)    196 to 199 °C
11  CN1CCCC[C@@H]1Cc1c(-c2ccccc2)[nH]c2ccccc12           135 °C
12                        N#CC(C=O)=Cc1ccsc1    123 to 124 °C
13              CCCCc1ccc(-c2ncc(C#N)cn2)cc1    109 to 110 °C
14  CC(C)(C)OC(=O)c1nc(-c2ccc(Cl)cc2Cl)n(-c2ccc(Cl)cc2)c1S(C)(=O)=O           130 °C
15  COc1cccc([C@H]2O[C@H](CC(=O)NCCCOc3cccc(C(=O)O)c3)C(=O)N(CC(C)(C)CO)c3ccc(Cl)cc32)c1OC    132 to 134 °C
16  CCCCc1oc2ccccc2c1C(O)c1ccc(-c2ccc(OCC(=O)O)cc2)cc1 (stereo not drawn)    111 to 113 °C
17  CN1CCN(S(=O)(=O)c2ccc([C@@H](CC3CCCC3)C(=O)O)cc2)CC1    202 to 203 °C
18              CC(=O)c1ccc(Oc2ccc(I)cc2)cc1     99 to 101 °C
19  CC(=O)Nc1ccc2[nH]c(=O)c(=O)n(CC(C)(C)C)c2c1    294 to 295 °C
20  C=CC(CC(O)C(CC(C)C)NC(=O)C(Cc1c[nH]cn1)NC(=O)C(Cc1ccccc1)NC(=O)OC(C)(C)C)C(C)C (stereo not drawn)            82 °C
21  O=S1(=O)c2cccc3cccc(c23)N1CC(Br)CN1CCN(c2ccc(F)cc2)CC1 (stereo not drawn)           102 °C
22            CCOC(=O)c1cn(-c2cccc(OC)c2)cn1      95 to 96 °C
23       N=C(NC1CC1)c1cc2c(cn1)[nH]c1ccccc12           253 °C
24            Cc1onc(NS(=O)(=O)c2ccccc2)c1Cl    139 to 141 °C
25  CC(C)N1CCC(CN2CCN(CCCN3CCCCC3)C2=C(C#N)C#N)CC1    115 to 117 °C
26          O=C(O)Cc1ccc(-c2ccc(F)cc2)c(F)c1    144 to 146 °C
27  CCOC(=O)C1=C(C)N=C(SCc2ccccc2)N(C(=O)OCC)C1c1ccccc1[N+](=O)[O-] (stereo not drawn)    110 to 112 °C
28  CC(CO)(Oc1ccc(C(=O)c2ccc(Cl)cc2)cc1)C(=O)O (stereo not drawn)    172 to 174 °C
29      CC(=O)Nc1cc(SCC(C)C)ccc1[N+](=O)[O-]      53 to 55 °C
30  O=C(O)c1ccc2nc3sc(-c4ccccc4)cc3c(=O)n2c1    387 to 392 °C
31  [N-]=[N+]=NC1(O)CC(n2ccc(N)nc2=O)OC1CO (stereo not drawn)    174 to 176 °C
32      Nc1nc2cc3[nH]c(-c4ccncc4)nc3cc2[nH]1         > 320 °C
33  CCc1nn(-c2c(Cl)cc(C(F)(F)F)cc2Cl)c(CC)c1Cc1c(OC)ccc2ccccc12      96 to 98 °C
34  CCOC(=O)C1=C(N)N=C(OCC)C(C(=O)OCC)C1c1ccc(SC)cc1 (stereo not drawn)           132 °C
35                    CN(C)C(N)=C(C#N)C(N)=S    186 to 187 °C
36             C1=Cc2cccnc2N(C2CC2)c2ncccc21    184 to 185 °C
37            CCCNC1=NS(=O)(=O)c2cc(Cl)sc2N1    246 to 247 °C
38  CNc1ccsc1C(=O)CS(C)=O (stereo not drawn)    125 to 127 °C
39  Cc1cc(C)c(N2C(=O)C(C)Cc3c(Cl)nc(C)nc32)c(C)c1 (stereo not drawn)    136 to 139 °C
40  C#CCN(Cc1ccc2nc(C)[nH]c(=O)c2c1)c1ccc(C(=O)NCc2cccc([N+](=O)[O-])c2)c(N)c1      86 to 92 °C
41   COc1ccc(-c2c(C)cc3c(O)cc(C)nn23)c(Cl)c1    196 to 198 °C
42                NNC(=O)C(F)(F)c1cccc(Cl)n1    165 to 167 °C

###

// values below are reported melting point
ASSAY ENDPOINT: melting point

In [3]: df
Out[3]:
                                    compound  reported_result
 0  COC1=C(c2ccccc2)C(CCC(=O)O)OC1=O (stereo unspecified)    126 to 127 °C
 1   Cn1c(=O)c2c(nc(Cl)n2Cc2ccccc2I)n(C)c1=O           178 °C
 2  Cn1ncc(C(=O)c2ccc(Cl)cc2Cl)c1OCc1ccc([N+](=O)[O-])cc1    116 to 118 °C
 3  CCOC(=O)c1c(-c2ccc(OC)c(OC)c2)c2cc(OC)c(OC)cc2[nH]c1=O    273 to 276 °C
 4  COC(=O)[C@H](Cc1ccc(OCCCN(C)Cc2ccccc2)cc1)NC(=O)[C@@H]1CCCN1S(=O)(=O)c1ccc(C)cc1      60 to 70 °C
 5  COC(=O)c1ccc(NN=CC(=O)OCCC#N)cc1S(N)(=O)=O    188 to 189 °C
 6  Cc1c(Cl)cc(C2=NNC(=O)CC2O)cc1Cl (stereo unspecified)    253 to 256 °C
 7                     Clc1nc(Cl)nc(C2CC2)n1    106 to 107 °C
 8  Nc1ncnc2c1c(Br)cn2COC(O)CCO (stereo unspecified)    170 to 172 °C
 9    O=C(O)Cc1ccc2c(c1)C(=O)c1ccc(Cl)cc1CO2    188 to 190 °C
10  COc1ccc2c(c1)CC(N(C)CCCNC(=O)Cc1cc(OC)c(OC)cc1[N+](=O)[O-])CC2 (stereo unspecified)    116 to 118 °C
11  CCOC(=O)CSCc1cc(-c2nn(C)c(C(F)(F)F)c2Cl)c(F)cc1Cl            63 °C
12  CCN(CC)CCSc1nnc(SCN2C(=O)c3ccccc3S2(=O)=O)s1    93 to 94.5 °C
13  CC(=Cc1c[nH]c2ccc3c(c12)CC(O)CO3)[N+](=O)[O-] (stereo unspecified)    240 to 242 °C
14  NC(=O)NC[C@@H]1CCCc2cc(Sc3cccc(F)c3)ccc21    115 to 116 °C
15       N#Cc1ccc(C=Cc2ccc(N(CCO)CCO)cc2)cc1           197 °C
16  CC(=O)c1ccc2c(c1)CCc1ccc(C(=O)O)cc1S2(=O)=O    219 to 221 °C
17  CCCCCCCCS(=O)Cc1c(C)c(O)c(C)c(CS(=O)CCCCCCCC)c1C (stereo unspecified)           175 °C
18  COc1ccc(-c2[nH]nc3c2C(=O)c2c(NC(=O)CCl)cccc2-3)cc1           274 °C
19      CCCCc1nc(C(O)(CC)CC)c(C(=O)OCC)[nH]1      63 to 64 °C
20  Fc1ccc(-c2ccc3nnn(Cc4ccc5ncccc5c4)c3n2)cc1    153 to 156 °C
